- measuredOn: T1, N1 binding to cell surface expressed hJ1 (Homo sapiens, UniProt P78504)
- T1 construct: cell expressed full length human J1 (hJ1; HEK293 transfectants); expressed in transfected cells; host or cells: HEK293
- assayComment: Notch binding blocking assay (FACS): N1 EGF11-13 beads staining human J1-expressing cells
- assayContext: final antibody concentration 1.0 μg/ml
propertyMeasured: Blocking of Notch1 binding to cell surface Jagged 1

>  <molecule>
J1-183D variant 12: humanised/de-immunised J1-183D: J1-183D_VL_3 + J1-183D_VH_4 (antibody, V domains shown) VH: QVQLVQSGAEVKKPGASVKVSCKASGYTFTDYAIHWVRQAPGQGLEWMGIINTYYGDSKYAQKFQGRVTMTVDTSTSTAYMELSSLRSEDTAVYYCARGYDGFAYWGQGTLVTVSSASTKGP VL: DIQMTQSPSSLSASVGDRVTITCRTSENIYSYLTWYQQKPGKAPKLLIYNAKILDSGVPSRFSGSGSGTDFTLTISSLQPEDFATYYCQHHYDIPWTFGGGTKLEIKRT

>  <reportedValue>
+ (Complete blocking)

$$$$
>  <molecule>
J1-65D variant 15: humanised/de-immunised J1-65D: J1-65D_VL_4 + J1-65D_VH_3 (antibody, V domains shown) VH: QVQLVQSGAEVKKPGSSVKVSCKASGYTFTDYEMHWVRQAPGQGLEWMGAIQPGGGGTAYAQKFQGRVTLTADKSTSTAYMELSSLRSEDTAVYYCTRRGYDDYPFAYWGQGTLVTVSS VL: DIQMTQSPSSLSASVGDRVTITCRASQGIHNYLAWYQQKPGKAPKLLIYNAKTLADAVPSRFSGSGSGTDYTLTISSLQPEDFATYYCQQFWSAPWTFGQGTKLEIK

>  <reportedValue>
X

$$$$
>  <molecule>
J1-65D variant 2: humanised/de-immunised J1-65D: J1-65D_VL_1 + J1-65D_VH_2 (antibody, V domains shown) VH: QVQLVQSGAELKKPGSSVKVSCKASGYTFTDYEMHWVRQAPGQGLEWMGAIQPGGGGTAYAQKFKGRVTLTADKSTSTAYMELSSLRSEDTAVYYCTRRGYDDYPFAYWGQGTLVTVSSASTKGP VL: DIQMTQSPSSLSASVGDRVTITCRASGNIHNYLAWYQQKPGKAPKLLIYNAKTLADDVPSRFSGSGSGTDYTLTISSLQPEDFATYYCQHFWSAPWTFGGGTKLEIKRT

>  <reportedValue>
+ (Complete blocking)

$$$$
>  <molecule>
J1-183D variant 16: humanised/de-immunised J1-183D: J1-183D_VL_4 + J1-183D_VH_4 (antibody, V domains shown) VH: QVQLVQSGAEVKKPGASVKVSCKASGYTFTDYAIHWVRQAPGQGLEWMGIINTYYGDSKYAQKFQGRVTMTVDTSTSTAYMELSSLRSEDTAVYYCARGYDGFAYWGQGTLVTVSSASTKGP VL: DIQMTQSPSSLSASVGDRVTITCRTSENIYSYLTWYQQKPGKAPKLLIYHAKILDSGVPSRFSGSGSGTDFTLTISSLQPEDFATYYCQHHYDIPWTFGGGTKLEIKRT

>  <reportedValue>
+ (Complete blocking)

$$$$
